Recorded values, source paper PMC10266124.

Biological target: Biotinylated SARS-CoV-2 spike S1 protein (SARS-CoV-2, Wuhan, UniProt P0DTC2, biotin (biotinylated))
Test: SPR
measuredMetric: binding result

mAb23 (COVA1-16) (antibody, V domains shown) VH: QVQLVQSGAEVKKPGASVKVSCKASGYTFTSYYMHWVRQAPGQGLEWMGIINSSGGSTSYAQKFQGRVTMTRDTSTSTVYMELSSLRSEDTAVYYCARPPRNYYDRSGYYQRAEYFQHWGQGTLVTVSS VL: DIQLTQSPSSLSASVGDRVTITCQASQDISNYLNWYQQRPGKAPKLLIYDASNLETGVPSRFSGSGSGTDFTFTISSLQPEDIATYYCQQYDNPPLTFGGGTKLEIK : binds
mAb02 (casirivimab) (antibody, V domains shown) VH: QVQLVESGGGLVKPGGSLRLSCAASGFTFSDYYMSWIRQAPGKGLEWVSYITYSGSTIYYADSVKGRFTISRDNAKSSLYLQMNSLRAEDTAVYYCARDRGTTMVPFDYWGQGTLVTVSS VL: DIQMTQSPSSLSASVGDRVTITCQASQDITNYLNWYQQKPGKAPKLLIYAASNLETGVPSRFSGSGSGTDFTFTISGLQPEDIATYYCQQYDNLPLTFGGGTKVEIK : binds
mAb22 (S304) (antibody, V domains shown) VH: VQLVESGGGLVQPGGSLRLSCAASGFTFSSYDMHWVRQTTGKGLEWVSTIGTAGDTYYPDSVKGRFTISREDAKNSLYLQMNSLRAGDTAVYYCARGDSSGYYYYFDYWGQGTLLTVSS VL: DIEMTQSPSSLSAAVGDRVTITCRASQSIGSYLNWYQQKPGKAPKLLIYAASSLQSGVPSRFSGSGSGTDFTLTISSLQPEDFAIYYCQQSYVSPTYTFGPGTKVDIK : binds
mAb03 (imdevimab) (antibody, V domains shown) VH: QVQLVESGGGVVQPGRSLRLSCAASGFTFSNYAMYWVRQAPGKGLEWVAVISYDGSNKYYADSVKGRFTISRDNSKNTLYLQMNSLRTEDTAVYYCASGSDYGDYLLVYWGQGTLVTVSS VL: QSALTQPASVSGSPGQSITISCTGTSSDVGGYNYVSWYQQHPGKAPKLMIYDVSKRPSGVSNRFSGSKSGNTASLTISGLQSEDEADYYCNSLTSISTWVFGGGTKLTVL : binds
